Values from PubChem BioAssay AID256

tested on: CD2F1 mice, L1210 leukemia ip, survival T/C; assay: NCI In Vivo Anticancer Drug Screen. Data for tumor model L1210 Leukemia (intraperitoneal) in CD2F1 (CDF1) mice; conditions: endpoint: mean survival time; dose: 12.5 mg/kg/injection; schedule: Q01DX005 (ip); vehicle: other; higher = longer survival
Toxic doses and inconclusive results are not listed.
readout kind: T/C

- Cn1c(=O)[nH]c2nc(-c3ccccc3)[nH]c2c1=O: 89 % of control
- COC(=N)/C(C#N)=N/C1OCC(O)C(O)C1O (centres undefined): 101 % of control
- CCCCCCCCCCCCCCCCn1cnc2c(Cl)ncnc21: 94 % of control

Request: Query: T/C; subject: `Cc1nn(-c2ccccc2)c2[nH]cnc(=S)c12`
Response: 86 % of control

====

Tested on: CD2F1 mice, L1210 leukemia ip, survival T/C
Test: NCI In Vivo Anticancer Drug Screen. Data for tumor model L1210 Leukemia (intraperitoneal) in CD2F1 (CDF1) mice
Settings: endpoint: mean survival time; dose: 12.5 mg/kg/injection; schedule: Q04DX003 (ip); vehicle: distilled water + Tween-80; higher = longer survival
Method: The antitumor activity of compounds was measured in mice bearing transplantable tumors. Survival or tumor size were measured and the results are expressed as the measurement made in the treated group (T) divided by the measurement made in the vehicle treated control group (C). The tumor model used in this assay is L1210 Leukemia (intraperitoneal) in CD2F1 (CDF1) mice
Inconclusive results and toxic doses are left out.
readout kind: T/C

- [I][Pt+2][I].[NH-]c1cccc(F)c1.[NH-]c1cccc(F)c1: 106 % of control

Request: Query: T/C; subject: `Cc1c2c[n+](CCCCCCCC[n+]3ccc4c(C)c5c(c(C)c4c3)c3ccccc3n5CCO)ccc2c(C)c2c1c1ccccc1n2CCO`
Response: 114 % of control

Request: Query: T/C; subject: `Cc1c2ccncc2c(C)c2c1[nH]c1ccccc12`
Response: 111 % of control

Request: Query: T/C; subject: `Nc1cc(=O)[nH]c(=S)[nH]1.[Pd]`
Response: 103 % of control

Request: Query: T/C; subject: O=C(O)CC(=O)O.[NH-]C1CCCCC1C1CCCCC1[NH-].[Pt+2] (stereo unspecified)
Response: 119 % of control

Request: Query: T/C; subject: `[Pd+2].[S-]CC[S-]`
Response: 101 % of control

====

Tested on: CD2F1 mice, L1210 leukemia ip, survival T/C
Experiment: NCI In Vivo Anticancer Drug Screen. Data for tumor model L1210 Leukemia (intraperitoneal) in CD2F1 (CDF1) mice
Conditions: endpoint: mean survival time; dose: 100.0 mg/kg/injection; schedule: Q04DX003 (ip); vehicle: saline with Tween-80; higher = longer survival
Experimental: The antitumor activity of compounds was measured in mice bearing transplantable tumors. Survival or tumor size were measured and the results are expressed as the measurement made in the treated group (T) divided by the measurement made in the vehicle treated control group (C). The tumor model used in this assay is L1210 Leukemia (intraperitoneal) in CD2F1 (CDF1) mice
Toxic doses and inconclusive results are not listed.
readout kind: T/C

Known T/C results, listed for orientation:
- COc1ccc(Nc2ccccc2Cl)c(C(=O)O)c1: 98 % of control
- CC(Br)C(=O)OCc1ccccc1 (stereo not drawn): 95 % of control
- C=CCOC(=O)Oc1ccccc1Cl: 98 % of control
- CCOC(=O)/C(C)=C(/N)c1ccccc1: 98 % of control
- CCN(CC)C(=O)Nc1cc2c3c(c1)CCCN3CCC2: 98 % of control
- COc1cc(OC)cc(C2=NNc3n[nH]c(=S)n3N2)c1: 93 % of control
- Cc1cccc(C)c1NC(=O)c1ccccc1Cl: 98 % of control
- Cc1cc(=O)[nH]c(N/N=C/c2ccc(N(C)C)cc2)n1: 104 % of control

Request: Query: T/C; subject: `NC(=O)C1=C2CCCc3cccc(c32)C1=O`
Response: 99 % of control

Request: Query: T/C; subject: O=C1CCCC2C3CC(CN12)C1CCCCN1C3 (stereo not drawn)
Response: 97 % of control

Request: Query: T/C; subject: `OCc1ccc(Cl)cc1`
Response: 96 % of control

Request: Query: T/C; subject: `CC(C)(C)OC(=O)NCC(=O)ON1C(=O)CCC1=O`
Response: 96 % of control

Request: Query: T/C; subject: `Cc1c(Cl)cccc1NS(=O)(=O)c1cccc([N+](=O)[O-])c1`
Response: 88 % of control

====

T/C values by entry
test system: CD2F1 mice, L1210 leukemia ip, survival T/C; experiment: NCI In Vivo Anticancer Drug Screen. Data for tumor model L1210 Leukemia (intraperitoneal) in CD2F1 (CDF1) mice; settings: endpoint: mean survival time; dose: 100.0 mg/kg/injection; schedule: Q04DX003 (ip); vehicle: saline; higher = longer survival
Toxic doses and inconclusive results are not listed.

Known T/C results, listed for orientation:
• CCC(CC)N=C(N)N = 94 % of control
• CC(O)c1ccc2c(c1)N(CCCN1CCN(CCO)CC1)c1ccccc1S2 (centres undefined) = 97 % of control
• CN1CCN(CCCN2CC3CC=CCC3C2)CC1 (centres undefined) = 105 % of control
• COC(=O)C1CC2C=CC1CC2 (centres undefined) = 97 % of control
• CC/C(I)=C(/CC)S(=O)(=O)c1ccc(C)cc1 = 95 % of control
• NS(=O)(=O)c1cccc([As](=O)(O)O)c1 = 95 % of control
• Cc1ccc(P(=O)(O)O)c([N+](=O)[O-])c1 = 95 % of control
• CC1CC([O-])=N/[N+]1=C\c1ccccc1 (centres undefined) = 101 % of control

Please turn your attention to the following entry.
Request: Query: T/C; subject: `CNNCc1ccc(C(=O)NC(C)C)cc1`
Response: 112 % of control

====

tested on: CD2F1 mice, L1210 leukemia ip, survival T/C; test: NCI In Vivo Anticancer Drug Screen. Data for tumor model L1210 Leukemia (intraperitoneal) in CD2F1 (CDF1) mice; settings: endpoint: mean survival time; dose: 200.0 mg/kg/injection; schedule: Q04DX002 (ip); vehicle: saline with Tween-80; higher = longer survival
Toxic doses and inconclusive results are not listed.
readout kind: T/C

Known T/C results, listed for orientation:
- CC(C)CCC(=O)c1ccccc1: 91 % of control
- NC(=S)Nc1ccccc1[N+](=O)[O-]: 93 % of control
- Cc1cccc(NC(=O)/C=C/c2ccccc2)c1C: 94 % of control
- NCCCN1CCN(c2ccccc2)CC1: 92 % of control
- CC1(C)C(=O)C(Cl)C(c2ccccc2)=C1c1ccccc1 (configuration not stated): 96 % of control
- Cc1ccc(S(=O)(=O)N(C)c2cc([N+](=O)[O-])ccc2Br)cc1: 103 % of control

Request: Query: T/C; subject: `Cn1c(=O)ccc2ccccc21`
Response: 87 % of control

====

system: CD2F1 mice, L1210 leukemia ip, survival T/C; test: NCI In Vivo Anticancer Drug Screen. Data for tumor model L1210 Leukemia (intraperitoneal) in CD2F1 (CDF1) mice; settings: endpoint: mean survival time; dose: 200.0 mg/kg/injection; schedule: Q01DX001 (ip); vehicle: saline; higher = longer survival
Inconclusive results and toxic doses are left out.
readout kind: T/C

Known T/C results, listed for orientation:
- CC(C)OP(=O)(OCCCO)C(Cl)Cl (stereo not drawn): 102 % of control
- OCCc1ccncc1: 105 % of control
- CN(C)/C(N)=N\c1nc(O)cc(=O)[nH]1: 96 % of control
- CC1=CSC2=NC(=O)CCN12: 100 % of control
- COc1ccc(C(=C(CC(=O)O)C(=O)O)c2ccc(OC)cc2)cc1: 98 % of control

Request: Query: T/C; subject: `CNC(=O)c1cccc2ccccc12`
Response: 97 % of control

Request: Query: T/C; subject: COC1OC(CO)C(O)C(OC)C1OC (stereo not drawn) (tested in a mixture with another compound)
Response: 100 % of control

====

test system: CD2F1 mice, L1210 leukemia ip, survival T/C; experiment: NCI In Vivo Anticancer Drug Screen. Data for tumor model L1210 Leukemia (intraperitoneal) in CD2F1 (CDF1) mice; settings: endpoint: mean survival time; dose: 100.0 mg/kg/injection; schedule: Q01DX001 (ip); vehicle: saline; higher = longer survival
Inconclusive results and toxic doses are left out.
T/C values by entry

Known T/C results, listed for orientation:
- NC(=O)NC(=O)C1CCCCC1C(=O)O (stereo unspecified): 103 % of control
- CC(C)/C=N\O: 110 % of control

Request: Query: T/C; subject: O=C(O)C(S)C(S)C(=O)O.[As] (stereo unspecified)
Response: 100 % of control

Request: Query: T/C; subject: O=S1(=O)N=C2C3CCN(CC3)C2C(c2ccccc2)N1 (stereo unspecified)
Response: 101 % of control

Request: Query: T/C; subject: `O=C(CCl)NCCCCNC(=O)CCl`
Response: 101 % of control

Request: Query: T/C; subject: CCOc1ccc(NC2OC(CO)C(O)C(O)C2O)cc1 (stereo unspecified)
Response: 100 % of control
